target: Interleukin-15 (Homo sapiens, UniProt P40933); experiment: Binding affinity to recombinant human IL-15 by SPR assay
Sequence (P40933 whole entry): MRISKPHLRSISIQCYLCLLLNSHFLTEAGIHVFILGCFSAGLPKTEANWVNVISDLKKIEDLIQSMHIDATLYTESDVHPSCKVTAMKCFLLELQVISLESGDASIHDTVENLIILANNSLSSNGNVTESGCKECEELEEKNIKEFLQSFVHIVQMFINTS
Give measured pKd for each item. Keep answers brief.
One number for each entry, as −log10 of the molar value.

- Cn1c(Cc2nn(C)c(=O)c3ccccc23)nnc1SCCCCCCCCCCC(=O)NC12CC3CC(CC(C3)C1)C2: 4.80
- COc1ccc(NC(=O)CCCCCCCSc2nnc(Cc3nn(C)c(=O)c4ccccc34)n2C)c(OC)c1: 4.71
- CC(C)COc1ccc(NC(=O)CCCCCCCSc2nnc(Cc3nn(C)c(=O)c4ccccc34)n2C)cc1: 4.60
- Cn1c(Cc2nn(C)c(=O)c3ccccc23)nnc1SCC(=O)Nc1ccc(Cl)cc1Cl: 4.32
- CC(C)Oc1ccc(NC(=O)CCCCCCCSc2nnc(Cc3nn(C)c(=O)c4ccccc34)n2C)cc1: 4.68

# input for lookup
Task item: Consider the molecule CCCOc1ccc(NC(=O)CCCCCCCSc2nnc(Cc3nn(C)c(=O)c4ccccc34)n2C)cc1 and give its measured pKd.
Reply: 4.72

* * *

target: IL15-IL15 receptor (Homo sapiens, UniProt P40933); assay: Inhibition of IL15R/IL15 interaction in human NK92 cells assessed as reduction of IL15-induced STAT5 phosphorylation preincubated for 30 mins with IL15 followed by cell addition measured after 1 hr by AlphaScreen assay
Sequence (P40933 whole entry): as above
Sequence (Q13261 whole entry, further chain): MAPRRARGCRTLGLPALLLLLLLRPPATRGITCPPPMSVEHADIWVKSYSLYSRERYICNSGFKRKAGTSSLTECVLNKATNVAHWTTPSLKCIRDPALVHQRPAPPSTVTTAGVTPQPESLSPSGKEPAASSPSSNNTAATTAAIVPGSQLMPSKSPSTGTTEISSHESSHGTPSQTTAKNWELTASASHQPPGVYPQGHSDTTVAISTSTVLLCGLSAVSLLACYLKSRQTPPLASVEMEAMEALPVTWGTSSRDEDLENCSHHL
quantity_name: pIC50
Answers are plain numbers, as −log10 of the molar value.

Look over these answered cases.
* Cn1c(Cc2nn(C)c(=O)c3ccccc23)nnc1SCCCCCCCC(=O)Nc1ccc(F)cc1F | 6.96
* Cn1c(Cc2nn(C)c(=O)c3ccccc23)nnc1SCCCCCCCCCCC(=O)NC12CC3CC(CC(C3)C1)C2 | 6.91
* Cn1c(Cc2nn(C)c(=O)c3ccccc23)nnc1SCCCCCCCCCCC(=O)Nc1ccc(Cl)cc1Cl | 6.85
* CC(C)Oc1ccc(NC(=O)CCCCCCCSc2nnc(Cc3nn(C)c(=O)c4ccccc34)n2C)cc1 | 7.03
* Cn1c(Cc2nn(C)c(=O)c3ccccc23)nnc1SCCCCCCCC(=O)Nc1ccc(Br)cc1Br | 7.04

Count: 3. Required value per item: pIC50.
1. Cn1c(Cc2nn(C)c(=O)c3ccccc23)nnc1SCCCCCCCC(=O)Nc1ccc(N=[N+]=[N-])cc1
2. Cc1ccc(NC(=O)CCCCCCCSc2nnc(Cc3nn(C)c(=O)c4ccccc34)n2C)c(Cl)c1
3. Cn1c(Cc2nn(C)c(=O)c3ccccc23)nnc1SCCCCCCCC(=O)Nc1ccc(Cl)cc1Cl

Reply:
1: 7.00; 2: 7.12; 3: 6.82

* * *

assay: Inhibition of recombinant human IL2R/IL2-induced mouse 32D-beta cell proliferation preincubated for 30 mins with protein followed by cell addition measured after 2.5 days by Alamar blue reduction assay; settings: Homo sapiens; read-out: IC50
pIC50: −log10 of the molar value.
Give measured pIC50 for each item. Keep answers brief.

Look over these answered cases.
* CC(C)Oc1ccc(NC(=O)CSc2nnc(Cc3nn(C)c(=O)c4ccccc34)n2C)cc1 | < 4.52
* Cn1c(Cc2nn(C)c(=O)c3ccccc23)nnc1SCCCCCCCC(=O)Nc1ccc(O)cc1 | < 4.52

Task item: Consider the compound Cn1c(Cc2nn(C)c(=O)c3ccccc23)nnc1SCc1cn(CCCCC(=O)Nc2ccc(Cl)cc2Cl)nn1 and give its measured pIC50.
Reply: < 4.52
